# Tested on: NCI-H226 lung
# Assay Summary: NCI tumour cell line growth inhibition, 48 h; in the data active = GI50 below about 0.43 µM; inactive = the rest
Outcomes: label 1 = active, label 0 = inactive

1. COc1ccc(Cl)cc1Nc1nc(C(F)(F)F)ccc1C(=O)N/N=C/c1ccc(Cl)cc1	label 0
2. Oc1ccc(/C=N/Nc2nnc(N/N=C/c3ccc(O)cc3O)c3ccccc23)c(O)c1	label 0
3. Cc1c2cc[n+](C)cc2c(C)c2c1[nH]c1ccc(Oc3ccccc3)cc12	label 0
4. CC(C)=NO.CC(C)=NO.CC(C)=NO.CC(C)=NO.[Ti]	label 0
5. CCn1c(SC)nnc1-c1cc2c([nH]c3ccccc32)c(-c2cccc(O)c2)n1	label 0
6. O=C(Nc1cccc(C(F)(F)F)c1)Nc1cc(S(=O)(=O)NC2CC2)ccc1-c1ccsc1	label 0
7. c1csc(-c2[nH]nc3c2CCc2ccccc2-3)c1	label 0
8. ClCc1ccc(Cn2cnc3nc(Cl)nc(Cl)c32)cc1	label 0
9. COc1cc(-c2nn(-c3cccc(NC(=O)c4cccc(C(F)(F)F)c4)c3)cc2-c2ccncc2)ccc1Cl	label 0
10. O=C1COc2c(CCNCCN(C(=O)CCNCCc3ccc(Cl)c(Cl)c3)C3CCCCC3)ccc(O)c2N1	label 0
11. CCNc1nc(-c2ccc(Cl)c(OC)c2)c(-c2ccnc(NCCNS(=O)(=O)c3ccc(Cl)cc3)n2)s1	label 0
12. Nc1ccc(N)c2c1C(=O)c1cccc([N+](=O)[O-])c1C2=O	label 1
13. CCc1c[nH]c2ncnc(N3CC[C@](N)(CNC(=O)c4ccc(F)cc4F)C3)c12	label 0
14. COc1cc2c(cc1OCCCN1CCN(CCCn3c4ccccc4c4ccccc43)CC1)N=C[C@@H]1CCCN1C2=O	label 1
15. CS(=O)(=O)Nc1ccc(Nc2c3ccccc3nc3cc(Cl)ccc23)cc1	label 0
16. Cc1cc(N(CCCl)CCCl)ccc1/C=N\NC(=O)c1cccnc1	label 0

---

# Tested on: BT-549 breast
# Assay Summary: NCI tumour cell line growth inhibition, 48 h; in the data active means GI50 below about 0.43 µM; inactive means the rest
Labels: active, inactive

1. O=C(COC(=O)[C@H](C[Se][Se]C[C@H](NC(=O)c1ccc(Br)cc1F)C(=O)OCC(=O)c1ccc(F)cc1)NC(=O)c1ccc(Br)cc1F)c1ccc(F)cc1	inactive
2. COc1ccc(Cl)cc1Nc1nc(C(F)(F)F)ccc1C(=O)N/N=C/c1ccc(Cl)cc1	active
3. Brc1ccc2c(c1)-c1ccccc1C1=NCCN12	inactive
4. CN1CCN(Cc2ccc(NC(=O)c3cncc(C#Cc4cnc5cccnn45)c3)cc2C(F)(F)F)CC1	inactive
5. CCc1c[nH]c2ncnc(N3CC[C@](N)(CNC(=O)c4ccc(F)cc4F)C3)c12	inactive
6. CCNc1nc(-c2ccc(Cl)c(OC)c2)c(-c2ccnc(NCCNS(=O)(=O)c3ccc(Cl)cc3)n2)s1	inactive
7. COc1ccc(C[C@H](N)C(=O)N[C@@H]2[C@@H](CO)OC(n3cnc4c(N(C)C)ncnc43)[C@@H]2O)cc1 (stereo partly drawn)	inactive
8. Oc1ccc(CCNc2nc3ccccc3c3[nH]c4ccccc4c23)cc1	inactive
9. Cn1c(=O)c(-c2c(Cl)cccc2Cl)cc2cnc(Nc3ccc(N4CCOCC4)cc3)nc21	active
10. Nc1ccc(N)c2c1C(=O)c1cccc([N+](=O)[O-])c1C2=O	inactive
11. CC(=O)OC1CCC2(C)C(=CCC3C4CC(CN5CC5)C(=O)C4(C)CCC32)C1 (stereo not drawn)	inactive
12. Cc1c(-c2ccc(N3CCc4cccc(C(=O)Nc5nc6ccccc6s5)c4C3)nc2C(=O)O)cnn1CC12CC3CC(CC(C3)C1)C2	inactive
13. O=C1C(=O)c2c(ccc3ccccc23)-c2ccccc21	inactive

Cited source: PubChem BioAssay (NCI)
